test system: Raji; test: Antitumor activity against human Raji cells assessed as DNA synthesis at 1 ug/mL by [3H]thymidine incorporation assay relative to control; type: functional
quantity: Activity

INSERT INTO measurements (substancesmiles, measvalue) VALUES
  ('CO[C@@H]1[C@@H](O)[C@H](O[C@H]2[C@@H](OC)C[C@H](O[C@H]3[C@@H](OC)C[C@H](O[C@H]4[C@@H](OC)C[C@H](O[C@H]5CC[C@@]6(C)C(=CC[C@]7(O)[C@@H]6C[C@@H](OC(=O)c6ccccc6)[C@@]6(C)[C@]7(O)CC[C@@]6(O)[C@H](C)OC(=O)/C=C/c6ccccc6)C5)O[C@@H]4C)O[C@@H]3C)O[C@@H]2C)O[C@H](C)[C@H]1O[C@@H]1O[C@H](CO)[C@@H](O)[C@H](O)[C@H]1O', '16%');
